Test system: Rattus norvegicus
Assay: Antiinflammatory activity in albino rat assessed as inhibition of carrageenan-induced paw edema at 28 umol/kg, ip administered 1 hr post carrageenan challenge measured at 5 hrs post compound dosing relative to control
Assay type: functional
outcomeMeasure: inhibition in vivo at 28 µmol/kg

- compound: "Cc1c(C(=O)NCCc2ccc(N(C)C)cc2)nc2ccc(Cl)cc2c1O"
  assayedSystem: "Rattus norvegicus"
  inhibition in vivo at 28 µmol/kg: "48.6%"
- compound: "Cc1c(C(=O)NCCc2ccc(N3CCCC3)cc2)nc2ccc(Cl)cc2c1O"
  assayedSystem: "Rattus norvegicus"
  inhibition in vivo at 28 µmol/kg: "49.9%"
- compound: "Cc1c(C(=O)NCCc2ccc(N3CCCC3C)cc2)nc2ccc(Cl)cc2c1O (centres undefined)"
  assayedSystem: "Rattus norvegicus"
  inhibition in vivo at 28 µmol/kg: "49.7%"

compound CCOC(=O)C(Cc1ccccc1)NC(=O)c1nc2ccc(Cl)cc2c(O)c1C (centres undefined) , inhibition in vivo at 28 µmol/kg observed: 49%
